- testedOn: HTRA1, Q92743
- Sequence (Q92743 360-477): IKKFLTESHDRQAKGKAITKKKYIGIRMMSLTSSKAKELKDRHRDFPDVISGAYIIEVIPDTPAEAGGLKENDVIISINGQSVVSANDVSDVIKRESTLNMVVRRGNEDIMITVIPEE
- testDescription: holdup assay
- Set-up: key: below the threshold = too weak to quantify, mostly under pKd 3.1 to 4
- conditionDetails: plain residues with an end cap or a label only (N-terminal biotin on a linker: ttds)
reportedEndpoint: pKd
Write no unit; give the number alone.

# count of solved cases: 2
Exercise: For the binder DPRNTQTSQI [ABRAXAS2, Q15018] , what pKd is on record?
Key: 3.64

Exercise: Entry LCALPKVTTV [AGMAT, Q9BSE5] has what pKd?
Key: 4.75

Proceeding to the next binder to report its pKd.
Exercise: So what's the measured pKd for this one? QFQYAKESYI [TAGAP, Q8N103]
Key: 4.03
